Catalogue of Emax at 30 µM values
- target.or.test.system: human orexin type 2 receptor (hOX2R) (Homo sapiens (Human), UniProt O43614)
- Sequence (O43614 whole entry): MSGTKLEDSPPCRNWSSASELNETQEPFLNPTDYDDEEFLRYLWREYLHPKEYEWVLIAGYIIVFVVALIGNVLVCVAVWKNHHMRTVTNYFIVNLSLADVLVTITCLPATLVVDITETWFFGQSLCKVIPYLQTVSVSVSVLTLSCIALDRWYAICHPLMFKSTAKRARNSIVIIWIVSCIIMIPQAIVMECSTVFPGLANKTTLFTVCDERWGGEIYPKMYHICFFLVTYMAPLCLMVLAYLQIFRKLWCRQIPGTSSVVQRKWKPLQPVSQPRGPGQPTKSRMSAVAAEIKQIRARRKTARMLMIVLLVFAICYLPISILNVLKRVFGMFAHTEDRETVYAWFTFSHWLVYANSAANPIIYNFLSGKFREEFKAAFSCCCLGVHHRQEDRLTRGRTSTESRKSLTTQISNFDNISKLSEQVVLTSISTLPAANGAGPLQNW
- run.description: Measurement of orexin type 2 receptor agonist activity (Experimental Example 2-1, FLIPR TETRA, intracellular Ca2+)
- Assay type: cell-based
- test.context: value at 30 uM concentration; orexin B as full agonist = 100%; CHO dhfr- cells expressing hOX2R

molecule: CC(=O)N1CCC[C@H](NS(C)(=O)=O)[C@@H]1CO[C@H]1CC[C@@H](C(F)(F)F)CC1 (relative stereo)
Emax at 30 µM / %: 89
//
molecule: COCC(=O)N1CCC[C@H](NS(C)(=O)=O)[C@@H]1CO[C@H]1CC[C@@H](c2ccccc2)CC1 (relative stereo)
Emax at 30 µM / %: 107
//
molecule: COC(=O)N1CCC[C@H](NS(C)(=O)=O)[C@@H]1CO[C@H]1CC[C@@H](c2ccccc2)CC1
Emax at 30 µM / %: 98
//
molecule: CN(C)S(=O)(=O)N[C@H]1CCCN[C@H]1CO[C@H]1CC[C@@H](c2ccccc2)CC1 (relative stereo)
Emax at 30 µM / %: 102
//
molecule: CS(=O)(=O)N[C@H]1CCCN[C@H]1CO[C@H]1CC[C@@H](c2cccc(F)c2F)CC1
Emax at 30 µM / %: 96
//
molecule: CC(C)[C@H]1CC[C@@H](OC[C@H]2[C@@H](NS(C)(=O)=O)CCCN2C(=O)N2CCCC2)CC1 (relative stereo)
Emax at 30 µM / %: 93
//
molecule: COCC(=O)N1CCC[C@H](NS(C)(=O)=O)[C@@H]1CO[C@H]1CC[C@@H](C(C)C)CC1 (relative stereo)
Emax at 30 µM / %: 100
//
molecule: COc1ccccc1[C@H]1CC[C@@H](OC[C@@H]2NCCC[C@@H]2NS(C)(=O)=O)CC1
Emax at 30 µM / %: 108
//
molecule: CCCNC(=O)N1CCC[C@H](NS(C)(=O)=O)[C@@H]1CO[C@H]1CC[C@@H](C(C)C)CC1 (relative stereo)
Emax at 30 µM / %: 112
//
molecule: COC(=O)N1CCC[C@H](NS(C)(=O)=O)[C@@H]1CO[C@H]1CC[C@@H](c2cccc(F)c2F)CC1
Emax at 30 µM / %: 100
//
molecule: CS(=O)(=O)N[C@H]1CCCN[C@H]1CO[C@H]1CC[C@@H](c2ccccc2C(F)(F)F)CC1
Emax at 30 µM / %: 90
//
molecule: CC(C)[C@H]1CC[C@@H](OC[C@H]2[C@@H](NS(C)(=O)=O)CCCN2C(=O)CCO)CC1 (relative stereo)
Emax at 30 µM / %: 96
//
molecule: CC(=O)OCC(=O)N1CCC[C@H](NS(C)(=O)=O)[C@@H]1CO[C@H]1CC[C@@H](C(C)C)CC1 (relative stereo)
Emax at 30 µM / %: 101
//
molecule: CC(C)[C@H]1CC[C@@H](OC[C@H]2[C@@H](NS(C)(=O)=O)CCCN2C(=O)Oc2ccccc2)CC1 (relative stereo)
Emax at 30 µM / %: 93
//
molecule: CC(=O)N1CCC[C@H](NS(C)(=O)=O)[C@@H]1CO[C@H]1CC[C@@H](c2ccccc2)CC1
Emax at 30 µM / %: 106
//
molecule: CC(=O)N1CCC[C@H](NS(=O)(=O)N(C)C)[C@@H]1CO[C@H]1CC[C@@H](c2ccccc2)CC1 (relative stereo)
Emax at 30 µM / %: 97
//
molecule: CCNS(=O)(=O)N[C@H]1CCCN(C(C)=O)[C@H]1CO[C@H]1CC[C@@H](C(C)C)CC1 (relative stereo)
Emax at 30 µM / %: 85
//
molecule: CC(=O)N1CCC[C@H](NS(C)(=O)=O)[C@@H]1CO[C@H]1CC[C@@H](C(C)(C)F)CC1 (relative stereo)
Emax at 30 µM / %: 89
//
molecule: COCCNC(=O)N1CCC[C@H](NS(C)(=O)=O)[C@@H]1CO[C@H]1CC[C@@H](C(C)C)CC1 (relative stereo)
Emax at 30 µM / %: 95
//
molecule: [2H]C1C([2H])[C@]([2H])(C(C)C)C([2H])C([2H])[C@]1([2H])OC[C@H]1[C@@H](NS(C)(=O)=O)CCCN1C(=O)NCC (some centres unmarked)
Emax at 30 µM / %: 100
//
molecule: CCNC(=O)N1CCC[C@H](NS(C)(=O)=O)[C@@H]1COC1CCN(c2ncccn2)CC1 (relative stereo)
Emax at 30 µM / %: 105
//
molecule: CS(=O)(=O)N[C@H]1CCCN[C@H]1CO[C@H]1CC[C@@H](c2c(F)cccc2F)CC1
Emax at 30 µM / %: 115
//
molecule: CC(=O)N1CCC[C@H](NS(=O)(=O)C(C)C)[C@@H]1CO[C@H]1CC[C@@H](C(C)C)CC1 (relative stereo)
Emax at 30 µM / %: 103
//
molecule: CC(C)[C@H]1CC[C@@H](OC[C@H]2[C@@H](NS(C)(=O)=O)CCCN2C(=O)N(C)C)CC1 (relative stereo)
Emax at 30 µM / %: 91
//
molecule: CC(=O)N1CCC[C@H](NS(C)(=O)=O)[C@@H]1CO[C@H]1CC[C@@H](c2cc(F)cc(F)c2)CC1
Emax at 30 µM / %: 96
//
molecule: CCS(=O)(=O)N[C@H]1CCCN(C(=O)Nc2ccccc2)[C@H]1CO[C@H]1CC[C@@H](C)CC1 (relative stereo)
Emax at 30 µM / %: 97

###

Measured pEC50 accompanies every entry in the list below.
- target.or.test.system: human orexin type 2 receptor (hOX2R) (Homo sapiens (Human))
- run.description: Measurement of orexin type 2 receptor agonist activity (Experimental Example 2-1, FLIPR TETRA, intracellular Ca2+)
- Format: cell-based
- test.context: CHO dhfr- cells expressing hOX2R, FLIPR TETRA, Fluo-4AM
pEC50: −log10 of the molar value.

compound: CC1(C)CCC(C(=O)N2CCC[C@H](NS(C)(=O)=O)[C@@H]2COC2CCN(c3ncccn3)CC2)CC1 (relative stereo) [Example 210]
pEC50: 5.44

compound: CCNC(=O)N1CCC[C@H](NS(C)(=O)=O)[C@@H]1CO[C@H]1CC[C@@H](c2ccccc2OC(F)(F)F)CC1 (relative stereo) [Example 295]
pEC50: 8.38

compound: CC(C)(O)C(=O)N1CCC[C@H](NS(C)(=O)=O)[C@@H]1CO[C@H]1CC[C@@H](c2ccccc2)CC1 (relative stereo) [Example 189]
pEC50: 7.11

###

- target.or.test.system: human orexin type 2 receptor (hOX2R) (Homo sapiens (Human), UniProt O43614)
- run.description: Measurement of orexin type 2 receptor agonist activity (Experimental Example 2-1, FLIPR TETRA, intracellular Ca2+)
- Type: cell-based
- test.context: CHO dhfr- cells expressing hOX2R, FLIPR TETRA, Fluo-4AM; read-out: Emax (%)
- Source text: To obtain a cell clone stably expressing human orexin type 2 receptor, human orexin type 2 receptor cDNA was inserted into pcDNA3.1(+) plasmid vector (Invitrogen), and a plasmid DNA for expression of human orexin type 2 receptor (pcDNA3.1(+)/hOX2R) was cloned. The plasmid DNA was introduced into CHO-dhfr cell by an electroporation method, and human orexin type 2 receptor expressing clone cells were obtained by limiting dilution method by using G418 drug resistance as a selection marker. […]
quantity: Emax

compound: CS(=O)(=O)N[C@H]1CCCN(C(=O)C2(O)CC2)[C@H]1CO[C@H]1CC[C@@H](c2ccccc2)CC1 (relative stereo)
target.or.test.system: human orexin type 2 receptor (hOX2R) (Homo sapiens (Human), UniProt O43614)
experimental.value: 98%
//
compound: CS(=O)(=O)N[C@H]1CCCN(C(=O)C2CC2)[C@H]1COC1CCN(c2cccc(F)c2Cl)CC1 (relative stereo)
target.or.test.system: human orexin type 2 receptor (hOX2R) (Homo sapiens (Human), UniProt O43614)
experimental.value: 89%
//
compound: CS(=O)(=O)N[C@H]1CCCN(C(=O)C2CC2)[C@H]1COC1CCN(c2ccccc2Cl)CC1 (relative stereo)
target.or.test.system: human orexin type 2 receptor (hOX2R) (Homo sapiens (Human), UniProt O43614)
experimental.value: 92%
//
compound: CS(=O)(=O)N[C@H]1CCCN(C(=O)[C@@H]2CCC(=O)O2)[C@H]1CO[C@H]1CC[C@@H](c2ccccc2)CC1
target.or.test.system: human orexin type 2 receptor (hOX2R) (Homo sapiens (Human), UniProt O43614)
experimental.value: 93%
//
compound: COC(=O)N1CCC[C@H](NS(C)(=O)=O)[C@@H]1COC1CCN(c2ncccn2)CC1 (relative stereo)
target.or.test.system: human orexin type 2 receptor (hOX2R) (Homo sapiens (Human), UniProt O43614)
experimental.value: 107%
//
compound: COC(=O)N1CCC[C@H](NS(C)(=O)=O)[C@@H]1CO[C@H]1CC[C@@H](c2ccccc2F)CC1
target.or.test.system: human orexin type 2 receptor (hOX2R) (Homo sapiens (Human), UniProt O43614)
experimental.value: 94%
//
compound: CS(=O)(=O)N[C@H]1CCCN(C(=O)CO)[C@H]1CO[C@H]1CC[C@@H](c2ccccc2C(F)(F)F)CC1
target.or.test.system: human orexin type 2 receptor (hOX2R) (Homo sapiens (Human), UniProt O43614)
experimental.value: 95%
